Origin of values: the METLIN SMRT retention time set (Domingo-Almenara et al. 2019)

# PROTOCOL DETAILS: gradient 5% acetonitrile 3 min, to 50% in 2 min, to 85% in 15 min, held 3 min, 100 µL/min
# DETAILS: column: Zorbax Extend-C18 2.1 x 50 mm; eluents: water / acetonitrile, 0.1% formic acid
Reported RP-LC retention time values for a set of compounds
ENDPOINT: RP-LC retention time (s)

>>> numeric_result("COc1ccc(NC(=O)C2CC(=O)N(c3n[nH]c4ccccc34)C2)cn1 (stereo not drawn)")
646
>>> numeric_result("CN(C)c1nc(Nc2ccc3c(c2)OCO3)c2cnn(-c3ccccc3)c2n1")
1220
>>> numeric_result("O=C(C1CC1)N1CCc2sc(S(=O)(=O)Nc3ccc(N4CCOCC4)cc3)cc2C1")
743
>>> numeric_result("O=C(NCc1ccccc1)C(=O)c1c[nH]c2ccccc12")
605
>>> numeric_result("O=C1COc2ccc(S(=O)(=O)N3CCCC3C(=O)Nc3cccc(Cl)c3)cc2N1 (stereo not drawn)")
835
>>> numeric_result("CCOC(=O)C1=C(C)NC2=C(C(=O)C(C(=O)OC)C(C)C2)C1c1ccccc1Cl (stereo not drawn)")
965
>>> numeric_result("COc1ccc(-c2nc3ncccn3c2Nc2cccc(C)c2)cc1")
743
>>> numeric_result("CCNc1cc(N2CCC(CCC(=O)NCC3CC3)CC2)ncn1")
588

----------
# PROTOCOL DETAILS: gradient 5% acetonitrile 3 min, to 50% in 2 min, to 85% in 15 min, held 3 min, 100 µL/min
# DETAILS: column: Zorbax Extend-C18 2.1 x 50 mm; eluents: water / acetonitrile, 0.1% formic acid
Heads up, the class ranges for RP-LC retention time are low group = under 800 s, middle group = from 800 s up to 900 s, high group = 900 s and over

>>> assigned_category("Cc1ccc(C2C=CC(C#N)=CN2Cc2ccccc2)cc1 (stereo unspecified)")
"high group"
>>> assigned_category("CNC(=O)c1csc(NC(=O)Cc2ccc(OC)cc2)n1")
"low group"
>>> assigned_category("COc1ccccc1C(=O)N1CCCC(COc2ccc(C(=O)NC(C)C)cc2)C1 (stereo unspecified)")
"middle group"
>>> assigned_category("O=C(NCc1ccccc1F)c1ccc2c(c1)CN(CC1=Cc3ccccc3OC1)CCO2")
"low group"
>>> assigned_category("CC1=C(C(=O)OCCc2ccccc2)C(c2ccc(F)cc2)NC(=O)N1 (stereo unspecified)")
"middle group"
>>> assigned_category("O=C(NCc1cccc(Br)c1)C1CCN(c2cnc3nccnc3c2)CC1")
"low group"
>>> assigned_category("CC(C)Cc1cc(-c2nn3c(CSc4ccccc4)nnc3s2)n[nH]1")
"high group"
>>> assigned_category("CCCNc1cc(N2CCC(CCC(=O)NCc3ccccc3C)CC2)ncn1")
"low group"

----------
# PROTOCOL DETAILS: gradient 5% acetonitrile 3 min, to 50% in 2 min, to 85% in 15 min, held 3 min, 100 µL/min
# DETAILS: column: Zorbax Extend-C18 2.1 x 50 mm; eluents: water / acetonitrile, 0.1% formic acid
ENDPOINT: RP-LC retention time (s)

>>> numeric_result("CCn1ccc(C(=O)N2CCN(c3ccc(=O)n(-c4ccc(Cl)cc4)n3)CC2)n1")
753
>>> numeric_result("O=C(NCc1ccco1)C1CCN(c2cncnc2N2CCCCC2)CC1")
646
>>> numeric_result("CCOC(=O)C(=O)Cc1nc2ccccc2s1")
871
>>> numeric_result("CCCNC(=O)N(C1CCOCC1)C1CCN(C(=O)c2ccc3ccccc3n2)CC1")
707
>>> numeric_result("CCc1nnc(NC(=O)c2ccc(N3C(=O)CCC3=O)cc2)s1")
627
>>> numeric_result("O=C(CCn1cnc2cc(-c3noc(-c4ccc(F)cc4)n3)ccc21)N1CCCC1")
771
>>> numeric_result("Cc1noc(-c2cccc(OC3CN(C(=O)NCC(C)C)C3)c2)n1")
808
>>> numeric_result("O=C(O)c1nnn(-c2cccc(F)c2)c1-c1ccccn1")
671
>>> numeric_result("O=C(C1CC1)N1c2ccccc2CC1c1nc(C2CC2)no1 (stereo not drawn)")
908
>>> numeric_result("CN1C(=O)c2cc(S(=O)(=O)NCc3ccc(Cl)cc3)ccc2Oc2cccnc21")
968
>>> numeric_result("CCn1cnc(S(=O)(=O)N2CCCC(C(=O)N3CCN(c4ncccn4)CC3)C2)c1 (stereo not drawn)")
657
>>> numeric_result("COc1cccc(CNC(=O)Cn2c(=O)cc(-c3nc(C4CC4)no3)c3ccccc32)c1")
902
>>> numeric_result("COc1cc(NC(=O)Nc2nccn(-c3ccc(Cl)cc3)c2=O)cc(OC)c1")
970
>>> numeric_result("CC(=O)N1CCc2cc(C)c(S(=O)(=O)NCc3ccco3)cc21")
742
>>> numeric_result("CN(CC(=O)N1CCN(c2cccc(Cl)c2)CC1)S(=O)(=O)c1c[nH]c(C(=O)N2CCCC2)c1")
834
>>> numeric_result("CCCN(CC1CCOC1)C(=O)Nc1cccc(C(F)(F)F)c1 (stereo not drawn)")
922
>>> numeric_result("O=C(NCCN1CCOCC1)c1ccc2c(c1)CCCN2C(=O)c1ccccc1F")
602
>>> numeric_result("COc1ccc(-c2cn3c(CC(=O)Nc4cccc(C#N)c4)csc3n2)cc1OC")
704
>>> numeric_result("CCN1CCN(c2ccc(-c3nc(-c4cccc(F)c4)no3)cn2)CC1")
698
>>> numeric_result("COc1cccc(CNC2=NCCNC23CCN(S(=O)(=O)c2ccccc2)CC3)c1")
678
>>> numeric_result("CCn1cc(CN(Cc2c(C)nn(C)c2C)C(=O)C2CCN(c3cnn(C)c(=O)c3)C2)cn1 (stereo not drawn)")
603
>>> numeric_result("O=C(CC1CCCCC1)Nc1ccc(-c2cn3cccnc3n2)cc1")
688
>>> numeric_result("CC(C)Cc1ccc(S(=O)(=O)N(CC(=O)N2CCNCC2)CC2CCCO2)cc1 (stereo not drawn)")
703
>>> numeric_result("Cc1cn2c(CCC(=O)NCCOc3ccc(F)cc3)csc2n1")
566
>>> numeric_result("O=C(Nc1ccccc1Br)N1CCN(CCn2c(C(F)(F)F)nc3cccnc32)CC1")
657
>>> numeric_result("CCN1C(=O)C2(c3ccccc31)c1[nH]c3ccccc3c1CCN2C(C)=O (stereo not drawn)")
779
>>> numeric_result("CNC(=O)N1CCCC(c2cccc(C(=O)NCc3cccc(Br)c3)c2)C1 (stereo not drawn)")
819
>>> numeric_result("O=C(CSc1ccc(N2CCCC(C(=O)NC3CC3)C2)nn1)Nc1ccccc1Cl (stereo not drawn)")
673

----------
# PROTOCOL DETAILS: gradient 5% acetonitrile 3 min, to 50% in 2 min, to 85% in 15 min, held 3 min, 100 µL/min
# DETAILS: column: Zorbax Extend-C18 2.1 x 50 mm; eluents: water / acetonitrile, 0.1% formic acid
Heads up, the class ranges for RP-LC retention time are bottom end: < 700 s; midrange: ≥ 700 s and < 900 s; top end: ≥ 900 s

>>> assigned_category("O=C(C1CCCC1)N1CC(N(Cc2ccccn2)C(=O)Nc2ccccc2)C1")
"bottom end"
>>> assigned_category("COC(=O)c1cc2c(=O)n(-c3cc(Cl)cc(Cl)c3)ccc2nc1C")
"top end"
>>> assigned_category("O=C(O)c1cccc(-c2noc(-c3ccccc3F)n2)c1")
"top end"
>>> assigned_category("CCc1ccccc1NC(=O)Cn1nc2nc(N3CCCC(C)C3)ccn2c1=O (stereo unspecified)")
"midrange"
>>> assigned_category("O=C(Nc1ccc(-n2cnc(C(=O)N3CCC4(CC3)OCCO4)c2)nc1)C1CC1")
"bottom end"
>>> assigned_category("O=C(NCc1ccccc1)Nc1c(-c2ccc(F)cc2)nc2ccccn12")
"bottom end"
>>> assigned_category("O=C(CCCc1ccccc1)N1CCN(c2ccc(-n3cccn3)nn2)CC1")
"midrange"
>>> assigned_category("CN(CC1(C)CCOCC1)C(=O)c1ccc2ccccc2n1")
"midrange"
>>> assigned_category("COc1ccc(-c2cn3c(CCC(=O)Nc4ccc5c(c4)OCCO5)csc3n2)cc1")
"bottom end"
>>> assigned_category("CCC(C(=O)N1CCn2c(C)nnc2C1)c1ccccc1 (stereo unspecified)")
"bottom end"
>>> assigned_category("CCNC(=O)c1csc(N2CCCC2)n1")
"midrange"
>>> assigned_category("COc1ccc(NC(=O)NC(C(=O)N2CCc3ccccc32)C(C)C)c(OC)c1 (stereo unspecified)")
"top end"
>>> assigned_category("CC1CCC2(CC1)NC(=O)N(CC(=O)NCc1ccc(F)cc1)C2=O (stereo unspecified)")
"midrange"
>>> assigned_category("CCOc1cccc(CNc2nccc(-n3nc(C)cc3C)n2)c1")
"midrange"
>>> assigned_category("Cc1ccnc(N2CCC(C(=O)NC3CCCCC3)CC2)n1")
"bottom end"
>>> assigned_category("O=C(Nc1ccccc1-n1cccc1)c1cn(-c2ccc(F)cc2)nn1")
"midrange"
>>> assigned_category("CC(C)CN1CCN(S(=O)(=O)c2ccc(-c3nnc(C4CC4)o3)o2)CC1")
"bottom end"
>>> assigned_category("CCn1cc(C2=CCN(C(=O)Nc3ccc(OC)c(OC)c3)CC2)c2cccnc21")
"midrange"
>>> assigned_category("CCCCN1C(=O)C(CC(=O)NCC(C)C)Sc2ncccc21 (stereo unspecified)")
"midrange"
>>> assigned_category("Fc1ccccc1-c1noc(-c2ncn3c2COC(c2ccccc2Cl)C3)n1 (stereo unspecified)")
"top end"
>>> assigned_category("Cc1cc(C(=O)NCc2ccc(F)cc2)nc2cc(-c3cccs3)nn12")
"top end"
>>> assigned_category("O=C1CC(c2noc(-c3ccc(F)cc3)n2)CN1Cc1ccccc1 (stereo unspecified)")
"top end"
>>> assigned_category("CC(C)C(=O)N1CCCc2ccc(NC(=O)c3ccc(F)c(F)c3)cc21")
"midrange"
>>> assigned_category("CN1CCCc2cc(C(=O)NCc3ccccc3Cl)sc21")
"top end"
>>> assigned_category("O=C(Cn1nc2c(Oc3ccccc3)nccn2c1=O)Nc1ccc(F)cc1Cl")
"midrange"
